The origin of these recorded values is patent US20240247253A1.

# Experimental target: T1, Recombinant Human Integrin αVβ3 (R&D systems, 3050-AV-050) (human, UniProt P06756 31-992; P05106 27-718)
# T1 construct: Bought heterodimer
# T1 sequence (P06756 31-992 limits assumed, chain 1 of 2): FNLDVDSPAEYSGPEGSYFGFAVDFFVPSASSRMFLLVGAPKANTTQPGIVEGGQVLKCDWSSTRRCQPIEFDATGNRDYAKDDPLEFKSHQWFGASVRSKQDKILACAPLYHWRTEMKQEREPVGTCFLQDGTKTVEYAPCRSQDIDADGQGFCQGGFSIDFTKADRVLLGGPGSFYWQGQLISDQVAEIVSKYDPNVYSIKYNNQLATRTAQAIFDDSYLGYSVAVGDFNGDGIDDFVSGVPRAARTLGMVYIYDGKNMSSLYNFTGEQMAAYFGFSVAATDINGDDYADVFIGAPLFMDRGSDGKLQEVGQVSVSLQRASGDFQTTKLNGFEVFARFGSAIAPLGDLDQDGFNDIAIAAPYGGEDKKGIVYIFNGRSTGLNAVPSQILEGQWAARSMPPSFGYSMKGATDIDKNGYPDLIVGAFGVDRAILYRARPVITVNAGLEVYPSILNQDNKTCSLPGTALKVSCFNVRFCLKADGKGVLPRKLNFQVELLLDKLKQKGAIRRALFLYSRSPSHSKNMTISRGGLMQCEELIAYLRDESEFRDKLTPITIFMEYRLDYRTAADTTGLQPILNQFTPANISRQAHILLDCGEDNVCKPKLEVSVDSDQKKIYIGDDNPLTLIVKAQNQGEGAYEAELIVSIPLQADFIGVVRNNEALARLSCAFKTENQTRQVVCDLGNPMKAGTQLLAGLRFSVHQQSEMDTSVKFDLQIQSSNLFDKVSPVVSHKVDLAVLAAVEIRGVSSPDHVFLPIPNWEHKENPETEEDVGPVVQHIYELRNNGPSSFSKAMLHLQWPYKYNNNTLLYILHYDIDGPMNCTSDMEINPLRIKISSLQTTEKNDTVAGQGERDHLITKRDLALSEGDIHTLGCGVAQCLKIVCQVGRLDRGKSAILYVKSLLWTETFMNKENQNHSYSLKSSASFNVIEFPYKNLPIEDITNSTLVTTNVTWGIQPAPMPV
# T1 sequence (P05106 27-718 limits assumed, chain 2 of 2): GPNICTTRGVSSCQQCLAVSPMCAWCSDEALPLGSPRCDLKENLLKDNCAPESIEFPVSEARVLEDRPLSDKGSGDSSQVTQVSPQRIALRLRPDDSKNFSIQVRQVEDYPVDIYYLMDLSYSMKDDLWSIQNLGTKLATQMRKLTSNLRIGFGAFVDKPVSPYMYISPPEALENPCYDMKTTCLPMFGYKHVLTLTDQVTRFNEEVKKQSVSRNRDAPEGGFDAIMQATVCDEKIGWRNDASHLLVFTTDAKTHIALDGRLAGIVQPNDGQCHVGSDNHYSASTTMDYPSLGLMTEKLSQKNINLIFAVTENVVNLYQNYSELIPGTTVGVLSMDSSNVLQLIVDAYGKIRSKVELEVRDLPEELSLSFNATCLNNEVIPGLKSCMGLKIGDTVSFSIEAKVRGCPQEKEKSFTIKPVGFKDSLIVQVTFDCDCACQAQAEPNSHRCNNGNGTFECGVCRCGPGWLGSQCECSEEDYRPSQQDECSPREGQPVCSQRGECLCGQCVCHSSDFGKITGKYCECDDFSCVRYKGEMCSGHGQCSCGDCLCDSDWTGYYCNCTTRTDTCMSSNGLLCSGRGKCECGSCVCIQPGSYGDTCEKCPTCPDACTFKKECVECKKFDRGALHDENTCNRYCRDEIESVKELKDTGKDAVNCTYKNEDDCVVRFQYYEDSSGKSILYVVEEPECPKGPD
# Test summary: SPR (Biacore T-100): peptide immobilized on CM5 chip, integrin αVβ3 injected at 10, 30, 100, 300 nmol/L, 5 mmol/L MgCl2
# Method: In addition, as a comparative control, the binding ability (Kd value) of the integrin binding peptide was measured by the SPR method. An integrin binding peptide (SEQ ID NO: 126) was chemically synthesized and immobilized on a CM5 chip (Cytiva, BR100530) by an amine coupling method. The binding ability of the immobilized integrin binding peptide to Recombinant Human Integrin αVβ3 (R&D systems, 3050-AV-050) was measured using Biacore T-100 (Cytiva). […]
Ends that are not written are not given here. * marks the point of attachment. ClAc = O=C(CCl)*
Quantity kind: Kd (nM)
Please reply with the bare figure in nM and do not write the unit itself.

Fill in the blank: the reported Kd of CEPRGDNYRK(ClAc)GGSKKK (Immobilized on a CM5 chip by amine coupling; also called CEPRGDNYRXGGSKKK) [chemically synthesized integrin binding peptide (SEQ ID NO: 126)] is ____.
7.6
